tested on: Mus musculus; assay: Area under curve measured as conc vs time after intravenous administration to mice.; type: ADME, organism-based; design: unit not given here; conditions: in vivo
assay_metric: AUC

Below, 2 compounds whose answers are already recorded.
Enquiry: Provide value of AUC for this record tested with Mus musculus: "C[C@@H]1N[C@@H]2C[C@H]1N(c1nc3c(cc1F)c(=O)c(C(=O)O)cn3C(C)(C)C)C2.Cl"
Return: 22

Enquiry: Provide value of AUC for this record tested with Mus musculus: "C[C@H]1N[C@@H]2C[C@H]1N(c1nc3c(cc1F)c(=O)c(C(=O)O)cn3C(C)(C)C)C2.Cl"
Return: 18

Now examine the next entry.
Enquiry: Provide value of AUC for this record tested with Mus musculus: "Cc1c(F)c(N2C[C@H]3C[C@@H]2[C@H](C)N3)nc2c1c(=O)c(C(=O)O)cn2C1CC1.Cl"
Return: 59
